molecular target: Recombinant (1-346) HPK1 (h) (Homo sapiens); construct: Recombinant (1-346) HPK1 (h) is incubated with 8 mM MOPS pH 7.0; assay: HPK1 human STE kinase enzymatic radiometric assay; assay type: biochemical; settings: read-out: HPK1 IC50 nM Range
Sequence (Q92918 1-346): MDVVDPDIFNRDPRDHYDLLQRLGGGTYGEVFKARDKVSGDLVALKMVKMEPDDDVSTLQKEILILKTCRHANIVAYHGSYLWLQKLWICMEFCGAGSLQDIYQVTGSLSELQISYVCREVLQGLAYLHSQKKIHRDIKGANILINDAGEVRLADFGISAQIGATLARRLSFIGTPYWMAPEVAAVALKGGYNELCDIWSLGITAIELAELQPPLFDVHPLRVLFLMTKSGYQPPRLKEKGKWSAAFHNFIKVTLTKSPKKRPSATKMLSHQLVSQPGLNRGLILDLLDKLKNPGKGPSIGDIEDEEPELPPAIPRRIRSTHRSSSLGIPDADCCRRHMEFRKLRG
IC50 values for the compounds below.
TEST_READOUT: IC50

>>> result("Nc1nc(F)c(-c2ccc(N3CCOCC3)c(CN3CCCC3)c2)nc1-c1ccc2c(=O)[nH]ccc2c1")
"0.1 to 10 nM"
>>> result("Cc1c[nH]c(=O)c2cc(F)c(-c3nc(-c4ccc(N5CCN(C(C)C)CC5)cc4)c(F)nc3N)cc12")
"0.1 to 10 nM"
>>> result("CN(C)Cc1cc(-c2nc(-c3ccc4c(=O)[nH]cc(F)c4c3)c(N)nc2F)ccc1C1CCOCC1")
"0.1 to 10 nM"
>>> result("CC1NC(=O)c2c(F)cc(-c3nc(-c4ccc(N5CCN(C6CCC6)CC5)cc4)c(F)nc3N)cc2C1(F)F (centres unmarked)")
"11 to 100 nM"
>>> result("CC(C)N1CCN(c2ccc(-c3nc(-c4ccc5c(=O)[nH]ncc5c4)c(N)nc3F)cc2)CC1")
"11 to 100 nM"
>>> result("Cc1[nH]c(=O)c2ccc(-c3nc(-c4ccc(N5CCOCC5)c(CN(C)C)c4)c(F)nc3N)cc2c1F")
"0.1 to 10 nM"
>>> result("Nc1nc(F)c(-c2ccc(N3CCN(CC4CC4)CC3)cc2)nc1-c1cc2c(F)c[nH]c(=O)c2cc1F")
"0.1 to 10 nM"
>>> result("CN1C[C@@H]2C[C@]2(c2ccc(-c3nc(-c4ccc5c(=O)[nH]cc(F)c5c4)c(N)nc3F)cc2)C1")
"0.1 to 10 nM"
>>> result("CN(C)Cc1cc(-c2nc(-c3ccc4c(=O)[nH]cc(F)c4c3)c(N)nc2F)ccc1O")
"0.1 to 10 nM"
>>> result("CN(C)Cc1cc(-c2nc(-c3ccc4c(=O)[nH]cc(F)c4c3)c(N)nc2F)cc(F)c1N1CCOCC1")
"0.1 to 10 nM"
>>> result("Cc1cc(-c2nc(-c3cc(F)c4c(c3)CCNC4=O)c(N)nc2F)ccc1C1CCOCC1")
"0.1 to 10 nM"
>>> result("Cc1c[nH]c(=O)c2cc(F)c(-c3nc(-c4ccc(C5CCOCC5)c(CN(C)C)c4)c(F)nc3N)cc12")
"0.1 to 10 nM"
>>> result("C[C@H]1CCCN1Cc1cc(-c2nc(-c3ccc4c(=O)[nH]cc(Cl)c4c3)c(N)nc2F)ccc1C1CCOCC1")
"11 to 100 nM"
>>> result("C[C@@H]1CN(c2ccc(-c3nc(-c4ccc5c(c4)CCNC5=O)c(N)nc3F)cc2CN(C)C)C[C@H](C)O1")
"0.1 to 10 nM"

---

target: Recombinant (1-346) HPK1 (h) (Homo sapiens); construct: Recombinant (1-346) HPK1 (h) is incubated with 8 mM MOPS pH 7.0; assay: HPK1 human STE kinase enzymatic radiometric assay; assay type: biochemical; details: read-out: HPK1 IC50 nM Range
IC50 values for the compounds below.
TEST_READOUT: IC50

>>> result("CCN(C)Cc1c(N2CCOCC2)ccc(-c2nc(-c3cc4c(cc3F)C(=O)NCC4)c(N)nc2F)c1F [Example I-246]")
"11 to 100 nM"
>>> result("Cc1c[nH]c(=O)c2ccc(-c3nc(-c4ccc(F)c(CN(C)C)c4)c(F)nc3N)cc12 [Example I-275]")
"11 to 100 nM"
>>> result("COc1ccc(-c2nc(-c3ccc4c(=O)[nH]cc(F)c4c3)c(N)nc2F)cc1C(C)N(C)C (centres unmarked) [Example I-291]")
"0.1 to 10 nM"
>>> result("Cc1nc2cc(-c3nc(-c4ccc(C5CCOCC5)c(CN(C)C)c4)c(F)nc3N)cc(F)c2c(=O)[nH]1 [Example I-91]")
"0.1 to 10 nM"
>>> result("CC1NC(=O)c2c(F)cc(-c3nc(-c4ccc([C@]56C[C@H]5CN(C5CCC5)C6)cc4)c(F)nc3N)cc2C1(F)F (some centres unmarked) [Example I-195]")
"11 to 100 nM"
>>> result("CN1C[C@H]2C[C@@]2(c2ccc(-c3nc(-c4cc5c(cc4F)C(=O)NCC5)c(N)nc3F)cc2)C1 [Example I-3]")
"0.1 to 10 nM"
>>> result("COCCN(C)Cc1cc(-c2nc(-c3ccc4c(c3)CCNC4=O)c(N)nc2F)ccc1N1CCOCC1 [Example I-160]")
"0.1 to 10 nM"
>>> result("CCN(C)Cc1cc(-c2nc(-c3ccc4c(=O)[nH]cc(C)c4c3)c(N)nc2F)ccc1OC [Example I-301]")
"11 to 100 nM"
>>> result("C[C@@H]1CN(c2ccc(-c3nc(-c4ccc5c(c4)CCNC5=O)c(N)nc3F)cc2)C[C@H](C)N1C [Example I-57]")
"0.1 to 10 nM"
>>> result("CN(C)Cc1cccc(-c2nc(-c3cc4c(cc3F)C(=O)NCC4)c(N)nc2F)c1 [Example I-278]")
"11 to 100 nM"
>>> result("Nc1nc(F)c(-c2ccc(N3CCN(CC4CC4)CC3)cc2)nc1-c1ccc2c(c1)C1(CC1)CNC2=O [Example I-108]")
"0.1 to 10 nM"
>>> result("Nc1nc(F)c(-c2ccc(N3CCN(CCC4CC4)CC3)cc2)nc1-c1cc(F)c2c(c1)CCNC2=O [Example I-26]")
"0.1 to 10 nM"
>>> result("CN(C)Cc1cc(-c2nc(-c3ccc4c(c3)CCNC4=O)c(N)nc2F)cnc1N1CCOCC1 [Example I-237]")
"11 to 100 nM"
>>> result("CN(C)Cc1cc(-c2nc(-c3cc(F)c4c(=O)[nH]cc(F)c4c3)c(N)nc2F)ccc1N1CCOCC1 [Example I-120]")
"0.1 to 10 nM"
>>> result("CC(C)N1CCN(c2ccc(-c3nc(-c4cc5c(F)c[nH]c(=O)c5cc4F)c(N)nc3F)cc2)CC1 [Example I-140]")
"0.1 to 10 nM"
>>> result("CN(C)Cc1cc(-c2nc(-c3ccc4c(c3)C(F)(F)CNC4=O)c(N)nc2F)ccc1C1CCOCC1 [Example I-223]")
"0.1 to 10 nM"
>>> result("CN(C)Cc1cc(-c2nc(-c3ccc4c(=O)[nH]cc(F)c4c3)c(N)nc2F)cc2c1OCCO2 [Example I-269]")
"0.1 to 10 nM"
>>> result("Cc1nc2cc(-c3nc(-c4ccc(C5CCOCC5)c(CN5CCC[C@H]5C)c4)c(F)nc3N)cc(F)c2c(=O)[nH]1 [Example I-217]")
"11 to 100 nM"
>>> result("Cc1[nH]c(=O)c2ccc(-c3nc(-c4ccc(N5CCN(C(C)C)CC5)cc4)c(F)nc3N)cc2c1Cl [Example I-43]")
"0.1 to 10 nM"
>>> result("CO[C@H]1CCN(Cc2cc(-c3nc(-c4cc5c(cc4F)C(=O)NCC5)c(N)nc3F)ccc2N2CCOCC2)C1 [Example I-157]")
"0.1 to 10 nM"
>>> result("C[C@H]1CCCN1Cc1cc(-c2nc(-c3ccc4c(=O)[nH]cc(F)c4c3)c(N)nc2F)ccc1C1CCOCC1 [Example I-228]")
"0.1 to 10 nM"
>>> result("CC(C)N1CCN(c2ccc(-c3nc(-c4cc(F)c5c(=O)[nH]cc(F)c5c4)c(N)nc3F)cc2)CC1 [Example I-85]")
"0.1 to 10 nM"
>>> result("CN(C)Cc1cc(-c2nc(-c3ccc4c(=O)[nH]cc(F)c4c3)c(N)nc2F)c(F)cc1N1CCOCC1 [Example I-259]")
"11 to 100 nM"
>>> result("Cc1[nH]c(=O)c2c(F)cc(-c3nc(-c4ccc(N5CCOCC5)c(CN(C)C)c4)c(F)nc3N)cc2c1F [Example I-116]")
"0.1 to 10 nM"
>>> result("COC1CN(Cc2cc(-c3nc(-c4cc5c(cc4F)C(=O)NCC5)c(N)nc3F)ccc2N2CCOCC2)C1 [Example I-189]")
"0.1 to 10 nM"
>>> result("CN(C)Cc1cc(-c2nc(-c3ccc4c(c3)C3(CC3)CNC4=O)c(N)nc2F)ccc1N1CCOCC1 [Example I-105]")
"0.1 to 10 nM"
>>> result("CCN(C)Cc1cc(-c2nc(-c3ccc4c(c3)CCNC4=O)c(N)nc2F)cc(C)c1OC [Example I-297]")
"11 to 100 nM"
>>> result("CC1NC(=O)c2c(F)cc(-c3nc(-c4ccc([C@]56C[C@H]5CN(C)C6)cc4)c(F)nc3N)cc2C1(F)F (some centres unmarked) [Example I-135]")
"11 to 100 nM"
>>> result("Cc1cc2cc(-c3nc(-c4ccc(N5CCN(C(C)C)CC5)cc4)c(F)nc3N)cc(F)c2c(=O)[nH]1 [Example I-67]")
"0.1 to 10 nM"
